- system.under.test: human Cav2.2 (Homo sapiens)
- Sequence (Q00975 whole entry): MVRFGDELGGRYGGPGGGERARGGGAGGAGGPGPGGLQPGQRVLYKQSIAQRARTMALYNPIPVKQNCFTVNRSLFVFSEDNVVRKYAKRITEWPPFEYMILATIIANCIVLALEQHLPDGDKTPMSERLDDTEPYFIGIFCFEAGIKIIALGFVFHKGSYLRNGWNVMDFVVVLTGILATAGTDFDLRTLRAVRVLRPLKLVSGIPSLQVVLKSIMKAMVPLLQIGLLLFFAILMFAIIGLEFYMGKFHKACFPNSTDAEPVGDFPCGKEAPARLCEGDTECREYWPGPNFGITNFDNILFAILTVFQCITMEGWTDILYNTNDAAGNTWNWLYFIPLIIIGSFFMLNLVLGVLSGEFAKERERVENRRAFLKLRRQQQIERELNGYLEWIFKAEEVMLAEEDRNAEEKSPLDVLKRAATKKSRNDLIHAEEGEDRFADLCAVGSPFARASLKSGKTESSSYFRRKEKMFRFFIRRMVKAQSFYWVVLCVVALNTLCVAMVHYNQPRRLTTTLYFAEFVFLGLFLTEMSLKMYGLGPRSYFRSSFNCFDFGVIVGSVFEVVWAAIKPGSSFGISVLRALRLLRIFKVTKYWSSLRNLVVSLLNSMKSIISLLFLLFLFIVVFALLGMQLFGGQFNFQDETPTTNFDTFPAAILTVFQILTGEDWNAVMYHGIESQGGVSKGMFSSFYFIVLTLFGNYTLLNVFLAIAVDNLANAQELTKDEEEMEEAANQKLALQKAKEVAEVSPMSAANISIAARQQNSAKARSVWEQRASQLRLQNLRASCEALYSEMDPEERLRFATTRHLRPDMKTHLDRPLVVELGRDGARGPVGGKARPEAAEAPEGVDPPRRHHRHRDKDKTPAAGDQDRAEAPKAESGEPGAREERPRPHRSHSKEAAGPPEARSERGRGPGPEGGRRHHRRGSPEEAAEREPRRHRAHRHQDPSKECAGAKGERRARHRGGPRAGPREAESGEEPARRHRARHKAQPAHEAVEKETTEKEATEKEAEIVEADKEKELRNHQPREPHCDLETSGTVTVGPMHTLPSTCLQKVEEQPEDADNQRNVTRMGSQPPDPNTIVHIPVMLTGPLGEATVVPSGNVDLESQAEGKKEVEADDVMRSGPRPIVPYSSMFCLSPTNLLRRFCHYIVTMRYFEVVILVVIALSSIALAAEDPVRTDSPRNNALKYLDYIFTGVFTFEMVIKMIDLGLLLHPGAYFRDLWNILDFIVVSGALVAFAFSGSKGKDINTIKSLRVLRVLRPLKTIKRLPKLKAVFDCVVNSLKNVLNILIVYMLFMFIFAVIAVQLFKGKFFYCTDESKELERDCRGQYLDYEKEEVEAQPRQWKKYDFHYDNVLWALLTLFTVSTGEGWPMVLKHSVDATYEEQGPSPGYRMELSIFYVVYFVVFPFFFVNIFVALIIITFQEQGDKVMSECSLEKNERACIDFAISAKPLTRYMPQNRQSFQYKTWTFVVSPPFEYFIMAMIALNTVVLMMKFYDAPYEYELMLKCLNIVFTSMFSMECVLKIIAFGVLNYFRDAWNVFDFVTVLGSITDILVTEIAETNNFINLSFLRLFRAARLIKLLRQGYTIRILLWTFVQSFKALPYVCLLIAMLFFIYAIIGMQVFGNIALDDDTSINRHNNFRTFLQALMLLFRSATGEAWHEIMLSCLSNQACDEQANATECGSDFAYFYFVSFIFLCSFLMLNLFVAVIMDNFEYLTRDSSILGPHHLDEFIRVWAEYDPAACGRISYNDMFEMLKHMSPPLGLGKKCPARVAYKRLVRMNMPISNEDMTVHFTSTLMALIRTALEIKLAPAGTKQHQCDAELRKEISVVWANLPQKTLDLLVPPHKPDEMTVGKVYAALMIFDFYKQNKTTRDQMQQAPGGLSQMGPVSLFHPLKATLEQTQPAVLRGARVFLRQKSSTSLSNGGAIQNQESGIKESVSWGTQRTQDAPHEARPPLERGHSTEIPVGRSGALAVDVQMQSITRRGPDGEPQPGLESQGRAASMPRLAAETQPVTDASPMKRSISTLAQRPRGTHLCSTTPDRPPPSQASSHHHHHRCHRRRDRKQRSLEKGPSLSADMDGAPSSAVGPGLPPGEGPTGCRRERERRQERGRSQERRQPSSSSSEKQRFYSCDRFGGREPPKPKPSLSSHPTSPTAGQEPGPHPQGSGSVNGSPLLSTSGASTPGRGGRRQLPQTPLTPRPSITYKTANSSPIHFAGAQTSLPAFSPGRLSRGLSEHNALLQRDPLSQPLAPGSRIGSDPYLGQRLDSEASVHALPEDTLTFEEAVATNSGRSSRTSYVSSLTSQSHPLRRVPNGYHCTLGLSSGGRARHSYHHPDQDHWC
- Sequence (P54289 25-946 partner limits assumed): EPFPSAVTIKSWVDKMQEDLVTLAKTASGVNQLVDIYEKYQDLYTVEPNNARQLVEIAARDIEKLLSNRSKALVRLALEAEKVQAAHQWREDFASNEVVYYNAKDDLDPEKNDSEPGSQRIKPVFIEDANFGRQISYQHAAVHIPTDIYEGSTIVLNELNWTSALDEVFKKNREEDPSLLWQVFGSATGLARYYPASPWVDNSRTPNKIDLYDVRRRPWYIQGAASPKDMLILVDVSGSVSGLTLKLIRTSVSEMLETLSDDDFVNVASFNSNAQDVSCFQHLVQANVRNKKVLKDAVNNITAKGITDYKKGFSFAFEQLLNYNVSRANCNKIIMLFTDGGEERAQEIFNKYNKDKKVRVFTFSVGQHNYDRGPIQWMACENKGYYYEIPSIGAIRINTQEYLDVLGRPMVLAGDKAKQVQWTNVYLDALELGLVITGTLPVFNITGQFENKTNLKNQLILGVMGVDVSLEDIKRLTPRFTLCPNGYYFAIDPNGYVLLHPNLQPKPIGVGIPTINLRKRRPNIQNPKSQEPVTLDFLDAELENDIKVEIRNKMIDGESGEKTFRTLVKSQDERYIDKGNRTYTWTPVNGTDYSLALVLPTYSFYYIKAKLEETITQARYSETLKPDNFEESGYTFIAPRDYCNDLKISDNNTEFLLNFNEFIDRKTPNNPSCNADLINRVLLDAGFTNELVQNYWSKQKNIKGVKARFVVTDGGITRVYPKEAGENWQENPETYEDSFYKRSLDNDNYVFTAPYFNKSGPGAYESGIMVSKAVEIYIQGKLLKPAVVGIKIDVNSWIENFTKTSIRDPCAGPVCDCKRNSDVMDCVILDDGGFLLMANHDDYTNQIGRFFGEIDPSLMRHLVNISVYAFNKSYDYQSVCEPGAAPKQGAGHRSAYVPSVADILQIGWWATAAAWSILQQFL
- Sequence (P54289 947-1103 partner limits assumed): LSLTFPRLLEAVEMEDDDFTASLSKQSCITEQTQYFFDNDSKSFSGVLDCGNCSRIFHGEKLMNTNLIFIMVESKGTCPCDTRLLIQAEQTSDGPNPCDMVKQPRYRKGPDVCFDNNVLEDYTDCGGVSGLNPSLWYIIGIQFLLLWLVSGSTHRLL
- Sequence (P54284 whole entry partner): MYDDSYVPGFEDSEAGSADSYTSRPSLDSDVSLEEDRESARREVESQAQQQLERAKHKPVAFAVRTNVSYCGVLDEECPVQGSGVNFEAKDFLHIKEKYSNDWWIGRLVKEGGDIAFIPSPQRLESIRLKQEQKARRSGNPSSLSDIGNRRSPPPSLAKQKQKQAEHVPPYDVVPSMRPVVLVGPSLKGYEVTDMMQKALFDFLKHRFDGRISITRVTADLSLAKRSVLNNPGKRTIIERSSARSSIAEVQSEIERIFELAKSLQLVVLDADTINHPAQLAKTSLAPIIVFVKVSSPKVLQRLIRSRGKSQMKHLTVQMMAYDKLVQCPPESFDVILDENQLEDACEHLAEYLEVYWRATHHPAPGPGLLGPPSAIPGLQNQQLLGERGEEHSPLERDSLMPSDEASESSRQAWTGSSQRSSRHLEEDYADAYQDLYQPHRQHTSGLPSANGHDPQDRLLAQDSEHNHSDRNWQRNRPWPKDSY
- experimental.protocol: Assessment of calcium channel activity using FLIPR (Ca2+ influx in IMR32 cells)
- Assay type: cell-based
- protocol.conditions: 60 minute pre-incubation with compound, 2 μM nifedipine, depolarized with 80 mM KCl
property: IC50 (nM)

// below: answered compounds
[[record]]
structure_smiles_string = "CC(C)[C@@H](CC(=O)N[C@H]1CC[C@@H]2CN(S(=O)(=O)c3cccc(C(F)(F)F)c3)C[C@@H]21)NC(=O)OC(C)(C)C"
data_value = 5140

[[record]]
structure_smiles_string = "CC(C)C[C@H](NC(=O)OC(C)(C)C)C(=O)N[C@H]1CC[C@@H]2CN(Cc3ccccc3)C[C@@H]21"
data_value = 3930

[[record]]
structure_smiles_string = "O=C(N[C@@H]1CC[C@H]2CN(Cc3ccccc3)C[C@H]21)C(C1CCCCC1)C1CCCCC1"
data_value = 1800


P. O=C(N[C@H]1CC[C@H]2CN(Cc3ccccc3C(F)(F)F)C[C@H]21)C(C1CCCCC1)C1CCCCC1
Q. CCC[C@@H](C(=O)N[C@H]1CC[C@@H]2CN(Cc3ccc(C(F)(F)F)cc3)C[C@@H]21)N(C)C(=O)OC(C)(C)C
R. CC(C)C[C@@H](C(=O)N[C@H]1CC[C@@H]2CN(S(=O)(=O)c3cccc(C(F)(F)F)c3)C[C@@H]21)N(C)C
S. CC(C)C(C(=O)N[C@@H]1CC[C@H]2CN(Cc3cccc(C(F)(F)F)c3)C[C@H]21)C(C)C
Ask | # sort list by recorded IC50, greatest to least Put the labels in the requested order and write them down.
Reply | S, Q, P, R
